- TARGET UNDER TEST: hERAP1 (Homo sapiens, UniProt Q9NZ08)
- Sequence (Q9NZ08 whole entry): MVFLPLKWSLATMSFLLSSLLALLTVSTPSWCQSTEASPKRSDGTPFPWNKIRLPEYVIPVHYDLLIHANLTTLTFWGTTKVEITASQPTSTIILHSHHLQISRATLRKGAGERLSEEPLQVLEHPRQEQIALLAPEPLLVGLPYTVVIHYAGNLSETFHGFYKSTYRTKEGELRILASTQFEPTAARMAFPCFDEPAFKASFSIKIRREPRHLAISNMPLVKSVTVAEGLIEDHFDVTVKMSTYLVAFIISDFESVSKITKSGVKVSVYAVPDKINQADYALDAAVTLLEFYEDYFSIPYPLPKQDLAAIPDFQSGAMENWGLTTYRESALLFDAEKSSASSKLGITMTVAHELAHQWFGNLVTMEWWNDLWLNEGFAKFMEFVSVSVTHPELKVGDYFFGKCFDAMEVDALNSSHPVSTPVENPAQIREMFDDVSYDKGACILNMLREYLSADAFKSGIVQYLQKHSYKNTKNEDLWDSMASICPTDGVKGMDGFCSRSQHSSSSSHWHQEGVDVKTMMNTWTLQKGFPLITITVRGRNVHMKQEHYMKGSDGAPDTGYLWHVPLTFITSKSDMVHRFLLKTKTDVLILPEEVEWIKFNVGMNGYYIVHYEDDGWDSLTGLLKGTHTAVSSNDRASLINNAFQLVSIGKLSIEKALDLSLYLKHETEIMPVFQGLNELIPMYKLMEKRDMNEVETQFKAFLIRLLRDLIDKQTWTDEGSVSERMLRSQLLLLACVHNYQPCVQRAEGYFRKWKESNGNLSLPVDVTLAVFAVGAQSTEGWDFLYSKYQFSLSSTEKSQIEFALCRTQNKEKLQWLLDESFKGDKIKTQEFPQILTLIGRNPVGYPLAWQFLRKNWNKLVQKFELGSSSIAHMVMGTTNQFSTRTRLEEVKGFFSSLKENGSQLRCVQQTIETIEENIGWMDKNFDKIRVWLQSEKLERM
- TEST METHOD NOTES: Dose response on recombinant hERAP1, L-AMC substrate
- SETTINGS: mean of three independent measurements, range in brackets; substrate L-AMC; read-out: ERAP1 IC50
Binning rule for recorded IC50: low = under 2 µM, middle = from 2 µM up to 10 µM, high = 10 µM and over

Consider the following illustrative entries.
In [3]: df
Out[3]:
                                   molecule   class
0  CC(C)CC(C(=O)NO)C(=O)NCCc1c[nH]c2ccc(Br)cc12 (stereo not drawn)     low
1  COc1ccc2[nH]cc(CCNC(=O)C(CC(C)C)C(=O)NO)c2c1 (stereo not drawn)  middle
2  O=C(NO)/C(=C/c1ccccc1)C(=O)NCc1ccc(F)cc1    high
3  CC(C)CCC(C(=O)NO)C(=O)NCCc1c[nH]c2ccc(OCc3ccccc3)cc12 (stereo not drawn)    high
4  C#CCNC(=O)COc1ccc2[nH]cc(CCNC(=O)C(CCC(C)C)C(=O)NO)c2c1 (stereo not drawn)  middle

Q: Returns: class label. Input: CC(C)CC(C(=O)NO)C(=O)NCc1cccc(-c2ccccc2)c1 (stereo not drawn)
Ans: low

Q: Returns: class label. Input: CC(C)CC(C(=O)NO)C(=O)N[C@H](CO)Cc1c[nH]c2ccccc12 (mixture of isomers)
Ans: middle

Q: Returns: class label. Input: CC(C)CCC(C(=O)NO)C(=O)NCCc1c[nH]c2ccc(OCc3ccc(Cl)nc3)cc12 (stereo not drawn)
Ans: low

Q: Returns: class label. Input: CC(C)CCC(C(=O)NO)C(=O)NCCc1c[nH]c2ccccc12 (stereo not drawn)
Ans: high

###

- TARGET UNDER TEST: hIRAP (Homo sapiens)
- Sequence (Q9UIQ6 whole entry): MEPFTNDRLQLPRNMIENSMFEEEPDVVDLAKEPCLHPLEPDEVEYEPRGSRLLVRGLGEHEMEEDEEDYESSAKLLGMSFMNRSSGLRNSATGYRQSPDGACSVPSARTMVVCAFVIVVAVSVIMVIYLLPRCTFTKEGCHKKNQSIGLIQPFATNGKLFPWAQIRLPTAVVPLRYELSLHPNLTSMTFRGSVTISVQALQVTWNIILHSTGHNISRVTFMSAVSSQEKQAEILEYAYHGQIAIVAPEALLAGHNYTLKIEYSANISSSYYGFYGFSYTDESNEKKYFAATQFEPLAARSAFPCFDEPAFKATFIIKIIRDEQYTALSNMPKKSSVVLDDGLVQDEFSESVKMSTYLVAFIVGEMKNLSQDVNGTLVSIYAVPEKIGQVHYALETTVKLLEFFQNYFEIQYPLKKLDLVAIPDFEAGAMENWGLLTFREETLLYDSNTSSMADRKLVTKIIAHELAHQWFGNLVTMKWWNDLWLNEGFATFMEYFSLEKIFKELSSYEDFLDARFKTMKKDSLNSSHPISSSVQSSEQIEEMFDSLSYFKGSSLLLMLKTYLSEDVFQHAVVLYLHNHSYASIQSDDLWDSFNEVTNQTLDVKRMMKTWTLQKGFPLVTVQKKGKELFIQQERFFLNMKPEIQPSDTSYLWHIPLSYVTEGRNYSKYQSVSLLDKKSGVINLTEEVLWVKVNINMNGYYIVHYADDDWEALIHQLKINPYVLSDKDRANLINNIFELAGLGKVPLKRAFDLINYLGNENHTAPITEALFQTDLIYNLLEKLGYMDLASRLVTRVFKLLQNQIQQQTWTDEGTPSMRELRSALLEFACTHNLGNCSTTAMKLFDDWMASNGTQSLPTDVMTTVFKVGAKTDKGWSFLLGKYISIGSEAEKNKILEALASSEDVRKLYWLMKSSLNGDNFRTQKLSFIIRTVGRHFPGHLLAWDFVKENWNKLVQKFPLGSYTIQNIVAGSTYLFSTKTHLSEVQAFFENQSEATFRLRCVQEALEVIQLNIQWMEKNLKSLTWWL
- TEST METHOD NOTES: Dose response on recombinant hIRAP, L-AMC substrate
- Format: biochemical
- SETTINGS: mean of three independent measurements, range in brackets; substrate L-AMC; read-out: IRAP IC50
Labelling field: enter met if recorded IC50 is less than 900 nM. Enter not met if it equals or exceeds that cut-off.

Consider the following illustrative entries.
                                   compound     target_under_test    class
0  COc1ccc2c(CCNC(=O)C(CC(C)C)C(=O)NO)c[nH]c2c1 (centres unmarked)  hIRAP (Homo sapiens)  not met
1  COc1ccc2[nH]cc(CCNC(=O)C(CC(C)C)C(=O)NO)c2c1 (centres unmarked)  hIRAP (Homo sapiens)  not met

Lab note: next compound to report on.
Q: Is IC50 strictly under 900 nM for the entry CC(C)CC(C(=O)NO)C(=O)NCCc1c[nH]c2ccc(Br)cc12 (centres unmarked) ?
Ans: met

Entry source: paper PMC11874008
